Target: T1, UNK ZnF1-3 (human, UniProt Q9C0B0 31-174)
T1 sequence: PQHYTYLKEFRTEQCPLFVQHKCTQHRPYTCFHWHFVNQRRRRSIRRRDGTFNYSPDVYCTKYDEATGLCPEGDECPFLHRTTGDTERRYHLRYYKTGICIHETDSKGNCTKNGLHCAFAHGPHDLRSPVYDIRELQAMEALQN
Experiment: nsRBNS (natural sequence RNA bind-n-seq); RBNS binding buffer (assumed for nsRBNS): 25 mM Tris pH 7.5, 150 mM KCl, 3 mM MgCl2, 0.01% Triton X-100, 500 ug/ml BSA, 20 U/ml SUPERase-In, 4 C; UNK is unkempt and MSI1 is Musashi-1; names of the RNAs are library labels; protein concentration not given here; high values mean tight binding
In all, about 24,000 sequences were measured (“enrichment r”: median about 0.99, highest 2% from about 3.7 on). For the sample, the highest values were picked, then their nearest neighbours and some sequences at random.
Parameter threshold = 1 enrichment R. Response is 1 (yes) when binding signal meets or exceeds it, else 0 (no).

Binder	Assigned class
chr5:74677807:74677808:-_ENSG00000113163_ENST00000380494|hu_mus|motif|central (ssRNA) RNA: GGGAGUUCUACAGUCCGACGAUCACGGACACAUCGAUUGUUCAGAGGAGCACUAUCAUGAUCCACAGAAAAAUUACAAACGGUCCAAGUUUCAGGAUCAUUUUCAGUCAAGGCUGGGAUCUUUCGAAUAGCAGAAAGAUACAGCAACAGAGGAUUGAGCAUCA	1 (yes)
chr1:225611761:225611762:-_ENSG00000143815_ENST00000272163|hu_mus|hu_hu_hu_mus_True|8_98 (ssRNA) RNA: GGGAGUUCUACAGUCCGACGAUCCCAGGCCAUCGGCCUCUUACCACUUCACCCUCAACAAACUUCCUACUUGGCAUUUUCUAAAAUUAGUCUGGCCGCGCUCCGGCGGGAACUCCAGCCACUCCAGGGAGAAUAGUAGCAGCCCAACAGAGGAUUGAGCAUCA	1 (yes)
chr16:94690093:94690094:+_ENSMUSG00000040785_ENSMUST00000117648|mus_hu|mus_mus_mus_hu_True|1_68 (ssRNA) RNA: GGGAGUUCUACAGUCCGACGAUCGGGCUGGGAUGACGGACACACAGCCUCGAUUCCAGGGGGAAAAAAAAAUAGCCGAUACUAAUUAAAAAGUGUUAAUGAUUUUUGAAAAUCAGAUUACAUCUAUAAAAGAUGAAAGCACUUCAACAGAGGAUUGAGCAUCA	1 (yes)
chr16:94690093:94690094:+_ENSMUSG00000040785_ENSMUST00000117648|mus_hu|mus_mus_mus_hu_True|18_78 (ssRNA) RNA: GGGAGUUCUACAGUCCGACGAUCGGGCUGGGAUGACGGACACACAGCCUCGAUUCCGGUAAAAAAAAGUCUUAGUCGAUACUAAUUAAAAAGUGUUAAUGAUUUUUGAAAAUCAGAUGUAGAUUAAAAAAGAUGAAAAGCAAACAACAGAGGAUUGAGCAUCA	1 (yes)
chr16:94690093:94690094:+_ENSMUSG00000040785_ENSMUST00000117648|mus_hu|mus_mus_mus_hu_True|18_38 (ssRNA) RNA: GGGAGUUCUACAGUCCGACGAUCGGGCUGGGAUGACGGACACACAGCCUCGAUUCCAGGGGGAAAAAGUCUUAGUCGAUACUAAUUAAAAAGUGUUUUUAUAAUUGGAAAAUCAGAUGUAGAUUAAAAAAGAUGAAAAGCAAACAACAGAGGAUUGAGCAUCA	1 (yes)
chr17:6086338:6086339:+_ENSMUSG00000034345_ENSMUST00000039487|mus_mus|motif|central (ssRNA) RNA: GGGAGUUCUACAGUCCGACGAUCUGACUGAAAUAUAAAAUCCAGUAGUGCUCCAAUACAGCUAGAGUGUCCAUAAAAAUCGGUCUUCUACUUAAUUCUUAGUAUCAGGUGUGUAAGUAACAAUCCACUGGAAAGUUUACAUUACAACAGAGGAUUGAGCAUCA	0 (no)
168352429_168352549_4431_CDS_ENSG00000130396_ENST00000400822|human|control|control (ssRNA) RNA: GGGAGUUCUACAGUCCGACGAUCAAUGUACUGCAAGUCUCUGCGCUCGAUCGUGCGGGGCUGCUGCUGAGGCUGCAGCUCCCGAAUGACUGUUUCCUGUGGCCGCUGGAGUGUGGAAGGCUUUUCGGGCUUCAUCUGCUGUGCCAACAGAGGAUUGAGCAUCA	0 (no)
chr9:14812383:14812384:-_ENSMUSG00000031934_ENSMUST00000164273|mus_mus|mus_mus_mus_hu_True|28_48 (ssRNA) RNA: GGGAGUUCUACAGUCCGACGAUCAUAGCCCAGGUAGAUACACGCUAACAGUAUAAUGAUGAGUGUCAGCAGGCGGCAGCUAAUGUAUUUCAUGAUUAAAUUAUUAGAGUUCUUUUUUGUCUUCAAGUACUGCUCCACAAUUGGCAACAGAGGAUUGAGCAUCA	1 (yes)
chr11:77336104:77336105:-_ENSG00000074201_ENST00000525064|hu_mus|hu_hu_hu_mus_False|48_108 (ssRNA) RNA: GGGAGUUCUACAGUCCGACGAUCCUCGCACAUUGCAGUGAACAUCGCCUCCAAUGCUGACUUAUCACUGGGCACAAAUCGAAAUUCAGUAAUAGGUUCAACAUCAUCAUUGUCUUCCUCAUCUUCAUCAGAGAGAGGUUCUUUCAACAGAGGAUUGAGCAUCA	0 (no)
chr9:14812383:14812384:-_ENSMUSG00000031934_ENSMUST00000164273|mus_mus|mus_mus_mus_hu_True|48_48 (ssRNA) RNA: GGGAGUUCUACAGUCCGACGAUCAUAGCCCAGGUAGAUACACGCUAACAGUAUAAUGAUGAGUGUCAGCAGGCGGCAGCUAAUGUAUUUCAUGAUUAAAUUAUUAGAAUUUUUCUUUGUCUUCAAGUACUGCUCCACAAUUGGCAACAGAGGAUUGAGCAUCA	1 (yes)
chr16:94690093:94690094:+_ENSMUSG00000040785_ENSMUST00000117648|mus_hu|mus_mus_mus_hu_True|68_78 (ssRNA) RNA: GGGAGUUCUACAGUCCGACGAUCGGGCUGGGAUGACGGACACACAGCCUCGAUUCCGGUAAAAAAAAAAAAUAGCCGAUACUAAUUAAAAAGUGUUAAUGAUUUUUGAAAAUCAGAUUACAUCUAUAAAAGAUGAAAAGCAAACAACAGAGGAUUGAGCAUCA	1 (yes)
chrX:71482573:71482574:-_ENSMUSG00000031328_ENSMUST00000144429|mus_hu|FALSE|FALSE (ssRNA) RNA: GGGAGUUCUACAGUCCGACGAUCCUGCCACUGAGAAAGGGCUCUUAGGGAUGGGAUCCCCUCCAUAAGUGACAUUGACGCCUACUGGACCCUGCUGGACAGGCGUGUACUUGACUGUGUAGGUGUUGUCAUGGUGGUCGAUGACAACAGAGGAUUGAGCAUCA	0 (no)
chr1:82457952:82457953:+_ENSG00000117114_ENST00000335786|hu_mus|motif|central (ssRNA) RNA: GGGAGUUCUACAGUCCGACGAUCAGCUUUGCUGAAACAAUUUACAUGUCAUUAGAACUUUACCAUAAAAUAAAUUAAUUACGGAAUAUAGCCAGAAGGAAUAUGGAAGAGUAAUAUUUCUGUUUUAUUUUAUUUUUAUUUUAUCAACAGAGGAUUGAGCAUCA	1 (yes)
